Please respond with reported IC50 for every item in the list.
molecular target: Cholinesterase (Homo sapiens); assay: Inhibition of human plasma BChE after 5 mins by Ellman's method
Sequence (P06276 whole entry): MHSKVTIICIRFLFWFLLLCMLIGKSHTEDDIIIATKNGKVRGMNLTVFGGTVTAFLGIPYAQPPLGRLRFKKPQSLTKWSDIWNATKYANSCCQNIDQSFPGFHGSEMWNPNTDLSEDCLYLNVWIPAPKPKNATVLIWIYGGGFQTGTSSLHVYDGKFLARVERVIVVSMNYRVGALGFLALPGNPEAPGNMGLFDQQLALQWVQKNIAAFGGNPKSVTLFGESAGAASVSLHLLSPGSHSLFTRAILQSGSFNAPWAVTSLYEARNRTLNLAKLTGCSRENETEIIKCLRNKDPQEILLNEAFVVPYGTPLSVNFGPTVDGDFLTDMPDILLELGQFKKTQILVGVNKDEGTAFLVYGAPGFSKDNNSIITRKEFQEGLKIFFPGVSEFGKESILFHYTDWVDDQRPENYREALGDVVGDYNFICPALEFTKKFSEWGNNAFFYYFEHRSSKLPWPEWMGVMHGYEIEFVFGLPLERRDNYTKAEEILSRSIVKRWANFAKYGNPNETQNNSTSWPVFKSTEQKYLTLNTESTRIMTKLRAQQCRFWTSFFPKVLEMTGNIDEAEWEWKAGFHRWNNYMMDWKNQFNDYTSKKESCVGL
Response body: numeric value in µM, unit text excluded.

Req: Report IC50 under test system Cholinesterase (Homo sapiens) for c1cc[n+](Cc2ccc(C[n+]3ccccc3)cc2)cc1 .
Resp: 529

Req: Report IC50 under test system Cholinesterase (Homo sapiens) for c1cc[n+](Cc2ccc3ccc(C[n+]4ccccc4)cc3c2)cc1 .
Resp: 0.8

Req: Report IC50 under test system Cholinesterase (Homo sapiens) for c1cc[n+](COC[n+]2ccccc2)cc1 .
Resp: 583

Req: Report IC50 under test system Cholinesterase (Homo sapiens) for C(=C/C[n+]1ccccc1)/C[n+]1ccccc1 .
Resp: 1270

* * *

Please respond with reported pKi for every item in the list.
biological target: Acetylcholinesterase (Homo sapiens); experiment: Inhibition of human erythrocyte AChE after 5 mins by noncompetitive Lineweaver-Burke plot analysis for enzyme-inhibitor complex
// pKi here means minus log10 of the molar concentration (mol/L)

Req: Supply measured pKi of c1cc[n+](Cc2ccc3ccc(C[n+]4ccccc4)cc3c2)cc1 in your reply.
Resp: 6.85

Req: Supply measured pKi of c1cc[n+](CCCCCCCCCCC[n+]2ccccc2)cc1 in your reply.
Resp: 7.70

* * *

biological target: Acetylcholinesterase (Homo sapiens, UniProt P22303); experiment: Inhibition of human erythrocyte AChE after 5 mins by Ellman's method
Sequence (P22303 whole entry): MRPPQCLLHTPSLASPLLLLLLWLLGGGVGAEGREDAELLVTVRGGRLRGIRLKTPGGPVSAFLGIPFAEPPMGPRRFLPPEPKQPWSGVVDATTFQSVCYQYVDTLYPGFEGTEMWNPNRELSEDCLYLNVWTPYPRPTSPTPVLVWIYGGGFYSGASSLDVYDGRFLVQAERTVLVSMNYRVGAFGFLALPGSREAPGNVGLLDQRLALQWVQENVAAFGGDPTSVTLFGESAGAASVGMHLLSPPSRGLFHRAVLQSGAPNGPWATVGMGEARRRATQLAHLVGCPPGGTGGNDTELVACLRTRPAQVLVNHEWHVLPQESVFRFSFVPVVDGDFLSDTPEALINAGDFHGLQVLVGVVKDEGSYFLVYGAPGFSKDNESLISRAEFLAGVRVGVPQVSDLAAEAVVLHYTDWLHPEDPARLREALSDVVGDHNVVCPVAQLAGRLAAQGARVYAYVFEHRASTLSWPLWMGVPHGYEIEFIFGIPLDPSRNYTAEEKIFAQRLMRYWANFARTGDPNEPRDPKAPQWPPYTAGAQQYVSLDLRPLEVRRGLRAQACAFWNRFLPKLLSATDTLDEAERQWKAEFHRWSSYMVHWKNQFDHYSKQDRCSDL
pIC50: −log10 of the molar value.
Classify as follows. Reported pIC50 greater than or equal to 3: met. Reported pIC50 below: not met.

Req: Decide: is the reported value of pIC50 for c1cc[n+](CCCCCCCCCCC[n+]2ccccc2)cc1 equal to or greater than 3?
Resp: met

Req: Decide: is the reported value of pIC50 for c1cc[n+](CCCCCCCCC[n+]2ccccc2)cc1 equal to or greater than 3?
Resp: met

Req: Decide: is the reported value of pIC50 for C(=C/C[n+]1ccccc1)/C[n+]1ccccc1 equal to or greater than 3?
Resp: not met

Req: Decide: is the reported value of pIC50 for C(=C\C[n+]1ccccc1)/C[n+]1ccccc1 equal to or greater than 3?
Resp: not met

Req: Decide: is the reported value of pIC50 for c1cc[n+](Cc2cccc(C[n+]3ccccc3)c2)cc1 equal to or greater than 3?
Resp: not met

Req: Decide: is the reported value of pIC50 for c1cc[n+](CCCCC[n+]2ccccc2)cc1 equal to or greater than 3?
Resp: not met

Req: Decide: is the reported value of pIC50 for c1cc[n+](CCCCCCC[n+]2ccccc2)cc1 equal to or greater than 3?
Resp: met

Req: Decide: is the reported value of pIC50 for c1cc[n+](CCCCCCCC[n+]2ccccc2)cc1 equal to or greater than 3?
Resp: met

Req: Decide: is the reported value of pIC50 for c1cc[n+](Cc2ccccc2C[n+]2ccccc2)cc1 equal to or greater than 3?
Resp: met

Req: Decide: is the reported value of pIC50 for c1cc[n+](COC[n+]2ccccc2)cc1 equal to or greater than 3?
Resp: not met

Req: Decide: is the reported value of pIC50 for c1cc[n+](CCCCCC[n+]2ccccc2)cc1 equal to or greater than 3?
Resp: met

Req: Decide: is the reported value of pIC50 for c1cc[n+](Cc2ccc(C[n+]3ccccc3)cc2)cc1 equal to or greater than 3?
Resp: not met

Req: Decide: is the reported value of pIC50 for c1cc[n+](CCCC[n+]2ccccc2)cc1 equal to or greater than 3?
Resp: met

Req: Decide: is the reported value of pIC50 for c1cc[n+](Cc2ccc3ccc(C[n+]4ccccc4)cc3c2)cc1 equal to or greater than 3?
Resp: met

Req: Decide: is the reported value of pIC50 for c1cc[n+](CCOCC[n+]2ccccc2)cc1 equal to or greater than 3?
Resp: not met

Ref: ChEMBL document CHEMBL1154957
